B1: GFOD1 (parent)
chain: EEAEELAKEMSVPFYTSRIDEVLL

- Variants of: B1
- test: protein stability index of a GFP-peptide fusion (GPS, HEK-293T) (PSI 1-6); higher = more stable;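 also: lentivirally expressed fusions sorted by FACS into six bins by GFP to DsRed ratio, PSI derived from sequencing read proportions per bin multiplied by bin number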
- assayConditions: c terminus: a fixed tail appended
protein stability index vs 4: at or above is T, below is F.

{"columns": ["mutationSpec", "labelValue"],
 "data": [
  ["E1P", "F"],
  ["V22I", "F"],
  ["E21A", "F"],
  ["T16C", "F"],
  ["V22H", "T"],
  ["E4L", "F"],
  ["L6S", "T"],
  ["E4I", "F"],
  ["K8M", "F"],
  ["S11T", "T"],
  ["E2M", "F"],
  ["A3L", "F"],
  ["Y15L", "F"],
  ["E1C", "F"],
  ["S11P", "F"],
  ["E2W", "F"],
  ["E2D", "F"],
  ["A3V", "F"],
  ["D20L", "F"],
  ["K8L", "F"],
  ["Y15F", "F"],
  ["R18Q", "T"],
  ["L24S", "T"],
  ["V22P", "T"],
  ["E4F", "F"],
  ["L23P", "T"],
  ["F14M", "F"],
  ["E1T", "F"],
  ["P13H", "F"],
  ["T16Y", "F"],
  ["V12F", "F"],
  ["V12L", "F"],
  ["I19D", "T"],
  ["V22Y", "F"],
  ["D20R", "F"],
  ["V12P", "T"],
  ["V22T", "T"],
  ["T16F", "F"],
  ["L23F", "F"],
  ["V22E", "T"],
  ["D20Q", "F"],
  ["S17F", "F"],
  ["L24E", "T"],
  ["V22D", "T"],
  ["R18P", "T"],
  ["I19P", "T"],
  ["Y15A", "T"],
  ["I19E", "T"],
  ["E5N", "F"],
  ["F14P", "T"],
  ["I19S", "T"],
  ["T16V", "F"],
  ["V22L", "F"],
  ["I19N", "T"],
  ["E21L", "F"],
  ["Y15H", "T"],
  ["L24H", "F"],
  ["S11N", "F"],
  ["L23D", "T"],
  ["E9L", "F"],
  ["K8I", "F"],
  ["V12T", "T"],
  ["E4K", "F"]
]}
